Test system: PBMC (HIV-1-specific CD8+ T cells) of subject AC-06
test: IFN-γ Elispot assay of HIV-1-specific CD8+ T cell responses in subject AC-06
Assay type: cell-based, human
test-parameters: subject AC-06, 20 months after infection
A collection of sequences and their measured magnitude of HIV-1-specific CD8+ T cell responses at the single epitope level
metric: magnitude of HIV-1-specific CD8+ T cell responses at the single epitope level (SFC/Million PBMC)

>  <query-sequence>
ERILSTYLGR [A3-ER10]

>  <unit-text>
SFC/Million PBMC

>  <test-result>
0

$$$$
>  <query-sequence>
SPRTLNAWV [B7-SV9]

>  <unit-text>
SFC/Million PBMC

>  <test-result>
0

$$$$
>  <query-sequence>
KIRLRPGGK [A3-KK9]

>  <unit-text>
SFC/Million PBMC

>  <test-result>
220

$$$$
>  <query-sequence>
TPQDLNTML [B7-TL9]

>  <unit-text>
SFC/Million PBMC

>  <test-result>
0

$$$$
>  <query-sequence>
GPGHKARVL [B7-GL9]

>  <unit-text>
SFC/Million PBMC

>  <test-result>
1000

$$$$
>  <query-sequence>
KTKPPLPSVKK [A3-KK11]

>  <unit-text>
SFC/Million PBMC

>  <test-result>
150

$$$$
>  <query-sequence>
QIYPGIKVR [A3-QR9]

>  <unit-text>
SFC/Million PBMC

>  <test-result>
760

$$$$
>  <query-sequence>
GIPHPAGLK [A3-GK9]

>  <unit-text>
SFC/Million PBMC

>  <test-result>
0

$$$$
>  <query-sequence>
HPVHAGPIA [B7-HA9]

>  <unit-text>
SFC/Million PBMC

>  <test-result>
0

$$$$
>  <query-sequence>
IPRRIRQGL [B7-IL9]

>  <unit-text>
SFC/Million PBMC

>  <test-result>
840

$$$$
>  <query-sequence>
FPRIWLHGL [B7-FL9]

>  <unit-text>
SFC/Million PBMC

>  <test-result>
0

$$$$

Hello, the source for this data is patent US20040001845A1, in case you need it.
